# Lookup of reported CDK2 HIBIT Protein Quantification Maximum keyed by entry
tested target: CDK2 (Homo sapiens)
Construct: host or cells: HEK293-CDK2-Hibit
assay text: HiBit Assay Protocol for CDK2 (HIBIT protein quantification, degradation)
Assay type: cell-based
conditions: HEK293-CDK2-Hibit cells, compound treatment for 6 hours
outcome measure: CDK2 HIBIT Protein Quantification Maximum (%)

compound	quantitative result
C[C@@H](c1cccc(S(=O)(=O)N2CC[C@H](Nc3ncc4c(n3)N([C@@H]3CCC[C@@H](O)C3)C(=O)C43CC3)[C@H](F)C2)c1)N1CCN(c2ccc3c(N4CCC(=O)NC4=O)nn(C)c3c2)[C@@H](C)C1 [Compound 206]	91
CC1CCCC1N1C(=O)C2(CC2)c2cnc(NC3CCN(S(=O)(=O)N4CC5(CCN(C(=O)CCc6cccc7c6n(C)c(=O)n7C6CCC(=O)NC6=O)CC5)C4)CC3)nc21 (stereo not drawn) [Compound 20]	46
CC1CCCC1N1C(=O)C2(CC2)c2cnc(NC3CCN(S(=O)(=O)N4CC5(CCN(C(=O)CCc6ccc7c(c6)n(C)c(=O)n7C6CCC(=O)NC6=O)CC5)C4)CC3)nc21 (stereo not drawn) [Compound 59]	46
C[C@@H]1CN([C@@H](C)c2cccc(S(=O)(=O)N3CC[C@H](Nc4ncc5c(n4)N([C@@H]4CCC[C@@H](O)C4)C(=O)C54CC4)[C@H](F)C3)c2)CCN1c1ccc2c(N3CCC(=O)NC3=O)nn(C)c2c1 [Compound 209]	91
O=C1CCC(N2Cc3cc(N4CCC(N5CC(Oc6cccc(S(=O)(=O)N7CCC(Nc8ncc9c(n8)N([C@@H]8CCC[C@@H](O)C8)C(=O)C98CC8)CC7)c6)C5)CC4)ccc3C2=O)C(=O)N1 (stereo partly drawn) [Compound 134]	74
Cn1nc(N2CCC(=O)NC2=O)c2ccc(C3CCN(Cc4cncc(S(=O)(=O)N5CCC(Nc6ncc7c(n6)N([C@H]6CCC[C@H](O)C6)C(=O)C76CC6)CC5)c4)CC3)cc21 (stereo in doubt) [Compound 161]	79
Cn1nc(N2CCC(=O)NC2=O)c2ccc(C3CCN(Cc4cc(F)cc(S(=O)(=O)N5CCC(Nc6ncc7c(n6)N([C@@H]6CCC[C@@H](O)C6)C(=O)C76CC6)CC5)c4)CC3)cc21 [Compound 170]	75
Cn1c(=O)n(C2CCC(=O)NC2=O)c2cccc(C3CCN(Cc4cccc(S(=O)(=O)N5CCC(Nc6ncc7c(n6)N([C@@H]6CCC[C@@H](O)C6)C(=O)C76CC6)CC5)c4)CC3)c21 (stereo partly drawn) [Compound 148]	78
Cn1nc(N2CCC(=O)NC2=O)c2ccc(C3CCN(Cc4cccc(S(=O)(=O)N5CC[C@@H](Nc6ncc7c(n6)N([C@@H]6CCC[C@@H](O)C6)C(=O)C76CC6)[C@H](F)C5)c4)CC3)cc21 [Compound 158]	80
